Reference source: ChEMBL document CHEMBL4513216

- assay.remarks: Toxicity liver stage against HepG2, at 10uM
- Assay type: cell-based
- Parameters: test concentration 10 uM, cell line HepG2-A16-CD81EGFP
- cond: human, HepG2-A16-CD81EGFP cells; read-out: INHIBITION
cytotoxicity at 10 µM for assorted molecules

- molecule: "CC[C@@H]1C[C@H](C(F)(F)F)n2nc(C3CCN(S(=O)(=O)CC)CC3)cc2N1"
  cytotoxicity at 10 µM [%]: -28.2
- molecule: "CC(C)C(=O)Nc1ccc(Sc2nncn2C)c(Cl)c1"
  cytotoxicity at 10 µM [%]: -1.18
- molecule: "COCCNC(=O)c1nnn(Cc2ccccc2)c1OC"
  cytotoxicity at 10 µM [%]: 11.6
- molecule: "CCc1nc(C2CCCN2C(=O)CCCOc2cccc(F)c2)no1 (stereo unspecified)"
  cytotoxicity at 10 µM [%]: 11.1
- molecule: "Cc1cc(NC(=O)NCC(O)c2ccc(F)cc2)n(C)n1 (stereo unspecified)"
  cytotoxicity at 10 µM [%]: -2.69
- molecule: "CNc1ccnc(N2CCC(c3nnc(CN4CCCC4)n3C)CC2)n1"
  cytotoxicity at 10 µM [%]: 0.715
- molecule: "Cn1cc(C(=O)NCc2cn3c(n2)CN(Cc2ccncc2)CC3)cn1"
  cytotoxicity at 10 µM [%]: 5.71
- molecule: "COCC(=O)N(C)Cc1ccc(F)c(F)c1"
  cytotoxicity at 10 µM [%]: -140
- molecule: "CNC(=O)c1cc2c(nc1NCC1CC1)CCN(S(C)(=O)=O)CC2"
  cytotoxicity at 10 µM [%]: 5.57
- molecule: "Cc1ccc(CN(Cc2ccccn2)C(=O)CCC2CCCN(C)C2)s1 (stereo unspecified)"
  cytotoxicity at 10 µM [%]: 18.3
- molecule: "Cc1c[nH]c(CN(C)C(=O)[C@@]23CNC[C@@H]2CN(c2ncccn2)C3)n1"
  cytotoxicity at 10 µM [%]: -2.4

====

- assay.remarks: Toxicity liver stage against HepG2, at 10uM
- Assay type: cell-based
- Design: test concentration 10 uM, cell line HepG2-A16-CD81EGFP
- cond: human, HepG2-A16-CD81EGFP cells; read-out: INHIBITION
cytotoxicity at 10 µM for assorted molecules

- molecule: "CC(=O)Nc1cccc(OCCNC(=O)N(C)Cc2ccco2)c1"
  cytotoxicity at 10 µM / %: -9.29
- molecule: "CC(Nc1nc(-c2ccccc2)nc2c1CCNCC2)c1cccnc1 (centres undefined)"
  cytotoxicity at 10 µM / %: -0.587
- molecule: "O=C(NCCN1CCNCC1)c1c(O)c2ccccc2[nH]c1=O"
  cytotoxicity at 10 µM / %: 21
- molecule: "COc1ccccc1OCC(=O)Nc1ncccc1OC(F)F"
  cytotoxicity at 10 µM / %: 7.25
- molecule: "O=C(c1sccc1C1CC1)N1CCN(c2cnccn2)CC1"
  cytotoxicity at 10 µM / %: -2.92
- molecule: "NC(=O)CN(CC(=O)NCCc1c(F)cccc1F)C1CCCC1"
  cytotoxicity at 10 µM / %: -8.02
- molecule: "CCOCC1C[C@@H]2OCCN(C(=O)c3ccc[nH]3)[C@H]2C1 (some centres undefined)"
  cytotoxicity at 10 µM / %: -1.86
- molecule: "c1ccc2c(c1)cnn2CCCNC1CCOC2(CCOCC2)C1 (centres undefined)"
  cytotoxicity at 10 µM / %: -7.35
- molecule: "COc1ccc(C(=O)N2CCN3C(=O)CNC(=O)[C@@H]3C2)cc1"
  cytotoxicity at 10 µM / %: -7.1
- molecule: "CC(C(=O)NS(=O)(=O)Cc1cc(-c2ccccc2)no1)C1CC1 (centres undefined)"
  cytotoxicity at 10 µM / %: -2.72
- molecule: "CC(C)CNC[C@H]1O[C@H](Cc2cc(-c3ccccn3)on2)CC[C@@H]1O"
  cytotoxicity at 10 µM / %: -0.238
- molecule: "O=C(c1cc[nH]n1)N(Cc1ccc(F)cc1)CC1CC1"
  cytotoxicity at 10 µM / %: -10.8
- molecule: "Cc1oc(C(C)C)cc1C(=O)N1CCN(c2cnn(C)c(=O)c2)CC1"
  cytotoxicity at 10 µM / %: 1.27
- molecule: "CC(C)c1nc(C2CCCN2Cc2ccncc2Cl)no1 (centres undefined)"
  cytotoxicity at 10 µM / %: -2.83
- molecule: "Cc1cc(C)c2c(NCCC34CCCN3CCC4)ncnc2n1"
  cytotoxicity at 10 µM / %: -2.43
- molecule: "CN1CCN(c2ccc(F)cc2C(N)=O)CC1"
  cytotoxicity at 10 µM / %: 6.11
- molecule: "CCC[C@H]1CN(CCOC)C[C@@H]1NC(=O)Cn1cc(C)cn1"
  cytotoxicity at 10 µM / %: 4.83
- molecule: "COc1ccc2c(c1)C(C(=O)N(C)CCc1scnc1C)CC(=O)N2 (centres undefined)"
  cytotoxicity at 10 µM / %: -42.3
- molecule: "Cc1nc2c(c(NC3CC3)n1)CCN(C(=O)CCc1cccnc1)CC2"
  cytotoxicity at 10 µM / %: -9.1
- molecule: "CC(=O)NC1CCN(c2cc(C3CCNCC3)ccn2)CC1"
  cytotoxicity at 10 µM / %: 2.93
- molecule: "Fc1ccc(CNC2CCN(CCc3ccncc3)CC2)cc1F"
  cytotoxicity at 10 µM / %: -12.6
- molecule: "C[S+]([O-])CCNC(=O)N1CCSC(C)(C)C1 (centres undefined)"
  cytotoxicity at 10 µM / %: -0.0105
- molecule: "Cc1c(CN2Cc3nccn3CC2c2ccccc2)cnn1C (centres undefined)"
  cytotoxicity at 10 µM / %: -1.13
- molecule: "COCCCN1C(=O)CC[C@H]2CN(Cc3cc4ccccc4o3)CC[C@H]21"
  cytotoxicity at 10 µM / %: 23.8

====

cytotoxicity at 10 µM for assorted compounds
- assay.remarks: Toxicity liver stage against HepG2, at 10uM
- Assay type: cell-based
- Parameters: test concentration 10 uM, cell line HepG2-A16-CD81EGFP
- cond: human, HepG2-A16-CD81EGFP cells; read-out: INHIBITION

- compound: "O=S(=O)(c1ccccc1)N1CCN(Cc2ccc(F)cc2Br)CC1"
  reading.unit: "%"
  cytotoxicity at 10 µM: -2.57
- compound: "Cc1noc(C)c1CNc1cccc(C(=O)N2CCCC(O)C2)c1 (stereo unspecified)"
  reading.unit: "%"
  cytotoxicity at 10 µM: -6.08
- compound: "CCOCCC(=O)Nc1cccc(Cl)c1COC"
  reading.unit: "%"
  cytotoxicity at 10 µM: -3.81
- compound: "CC(NC(=O)c1sccc1C1CC1)c1ccc2c(c1)CC(=O)N2 (stereo unspecified)"
  reading.unit: "%"
  cytotoxicity at 10 µM: 1.66
- compound: "Cn1cc(C[C@H]2[C@H](O)CCN2C(=O)C2CCOCC2)cn1"
  reading.unit: "%"
  cytotoxicity at 10 µM: 13
- compound: "COC[C@H]1CNC(=O)[C@@H]2CCN(Cc3ccc(F)cc3)CC[C@H]12"
  reading.unit: "%"
  cytotoxicity at 10 µM: 14.2
- compound: "CCn1nc(C)c(CN(C)S(=O)(=O)c2cnn(C)c2)c1C"
  reading.unit: "%"
  cytotoxicity at 10 µM: 5.62
- compound: "O=C(CCc1ccccc1F)NS(=O)(=O)c1ccc2c(c1)OCCCO2"
  reading.unit: "%"
  cytotoxicity at 10 µM: -3.2
- compound: "CCn1nnc2c1C(COCCN(C)C)CN(Cc1ccco1)C2 (stereo unspecified)"
  reading.unit: "%"
  cytotoxicity at 10 µM: 1.86
- compound: "CC[C@@H](C)[C@@H](N)C(=O)Nc1cccc(-c2cnc(N(C)C)nc2)c1"
  reading.unit: "%"
  cytotoxicity at 10 µM: -4.78
- compound: "CCNC(=O)N1CCCCC1CCO (stereo unspecified)"
  reading.unit: "%"
  cytotoxicity at 10 µM: -4.27

====

- assay.remarks: Toxicity liver stage against HepG2, at 10uM
- Format: cell-based
- Parameters: test concentration 10 uM, cell line HepG2-A16-CD81EGFP
- cond: human, HepG2-A16-CD81EGFP cells; read-out: INHIBITION

- compound.smiles: "Cc1nnc2n1CCN(C(=O)CN1C(=O)CSc3ccccc31)C2"
  cytotoxicity at 10 µM / %: 0.442
- compound.smiles: "O=C(C1CCC1)N1CCc2[nH]cnc2C12CCN(C1CCOCC1)CC2"
  cytotoxicity at 10 µM / %: -2.4
- compound.smiles: "CCN(CC)CCCNCc1cc2cc(C)ccc2[nH]c1=O"
  cytotoxicity at 10 µM / %: -1.55
- compound.smiles: "c1ccc(CN2CCc3c(COCc4ccncc4)cncc3C2)nc1"
  cytotoxicity at 10 µM / %: 6.53
- compound.smiles: "CNc1nc(CNC(=O)Nc2ccccc2-c2noc(C)n2)cs1"
  cytotoxicity at 10 µM / %: -6.56
- compound.smiles: "Cc1noc(C)c1CN1CCN(C)c2ncccc2C1"
  cytotoxicity at 10 µM / %: -77
- compound.smiles: "O=C(O)[C@]12CCCN(Cc3cccnc3)[C@@H]1CCN(c1cnccn1)C2"
  cytotoxicity at 10 µM / %: 4.63
- compound.smiles: "Cn1nc(C(=O)N(CC(F)(F)F)c2cccc(Cl)c2)ccc1=O"
  cytotoxicity at 10 µM / %: 7.48
- compound.smiles: "O=C(O)c1c(Cl)ncn1-c1cccc2ccccc12"
  cytotoxicity at 10 µM / %: 1.76
- compound.smiles: "CCN1C[C@H]2C3(CCN(S(C)(=O)=O)CC3)CC[C@@]2(C(=O)N(C)C)C1"
  cytotoxicity at 10 µM / %: -107
- compound.smiles: "Cn1nc(CNS(=O)(=O)Cc2ccccc2F)c2c1CCCC2"
  cytotoxicity at 10 µM / %: -0.0785
